Please respond with reported MIC for every item in the list.
Tested on: Klebsiella aerogenes
Assay Details: Antimicrobial activity against multidrug resistant Enterobacter aerogenes isolate 1 by broth dilution method
Assay type: functional

Some solved cases for reference:
CC(C)(O/N=C(\C(=O)N[C@@H]1C(=O)N2C(C(=O)[O-])=C(C[n+]3ccccc3)CS[C@H]12)c1csc(N)n1)C(=O)O | > 2050 µg/mL
CO[C@@]1(NC(=O)Cc2cccs2)C(=O)N2C(C(=O)O)=C(COC(N)=O)CS[C@@H]21 | > 1020 µg/mL
CCn1cc(C(=O)O)c(=O)c2cc(F)c(N3CCNCC3)cc21 | 256 µg/mL

State the recorded MIC for this entry: C[C@@H](O)[C@H]1C(=O)N2C(C(=O)O)=C(SCCNC=N)C[C@H]12 [IMIPENEM ANHYDROUS]
1 µg/mL
